test-system: human GIPR (Homo sapiens, UniProt P48546)
Sequence (P48546 22-466): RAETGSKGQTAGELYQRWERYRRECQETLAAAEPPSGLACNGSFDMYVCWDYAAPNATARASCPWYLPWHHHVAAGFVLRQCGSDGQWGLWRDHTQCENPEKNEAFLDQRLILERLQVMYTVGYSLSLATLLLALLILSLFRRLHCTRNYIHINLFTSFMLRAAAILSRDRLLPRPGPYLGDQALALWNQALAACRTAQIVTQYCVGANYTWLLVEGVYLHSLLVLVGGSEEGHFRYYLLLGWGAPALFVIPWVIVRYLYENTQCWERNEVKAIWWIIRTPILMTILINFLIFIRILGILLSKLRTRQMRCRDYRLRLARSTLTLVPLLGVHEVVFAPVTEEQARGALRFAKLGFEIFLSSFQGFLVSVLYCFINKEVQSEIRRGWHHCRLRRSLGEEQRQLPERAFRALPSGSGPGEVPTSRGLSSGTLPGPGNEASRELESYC
Assay type: cell-based
Set-up: host or cells: COS-7
test-conditions: Emax normalized to highest concentration of endogenous ligand; Table 2
recorded-endpoint: Efficacy GIPR
Would you mind answering with just the numeric figure?

Efficacy GIPR reported for this substance (C16-diacid)H-Aib-EGTFISDYST-Aib-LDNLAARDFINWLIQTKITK-OH [Compound no. 19] : 98

Efficacy GIPR reported for this substance (C16-diacid)H-Aib-EGTFISDYST-Aib-LDALAARDFINWLIQTKITKNDWKHNITQ-OH [Compound no. 41] : 91

Efficacy GIPR reported for this substance H-Aib-DGTFISDY-K(γGlu-C16)-TILDNLAARDFINWLIQTKITK-OH [Compound no. 11] : 115

Efficacy GIPR reported for this substance H-Aib-DG-K(γGlu-C16)-FISDYSTILDNLAARDFINWLIQTKITK-OH [Compound no. 9] : 110

Efficacy GIPR reported for this substance (C16)HADGTFISDYSTAibLDNLAARDFINWLIQTKITKNDWKHNITQ [Compound no. 53] : 90

Efficacy GIPR reported for this substance H-Aib-DGTFISDY-K(γGlu-C16)-TILDNLAARDFINWLIETKITK-OH [Compound no. 32] : 89

Efficacy GIPR reported for this substance (C16)H-Aib-DGTFISDYSTILDNLAARDFIEWLIQTKITK-OH [Compound no. 7] : 114

Efficacy GIPR reported for this substance (C16)HADGTFISDYSTILDNLAARDFINWLIETKITKNDWKHNITQ [Compound no. 51] : 104
